# System: Cryptococcus neoformans
# TEST PARAMETERS: Concentration 20 uM; ASSAY_TEST Inhibition of Fungal Growth; detection method Resazurin; Absorption (OD600-OD570); plate type 384well; NBS; CORNING #3640
# Description: Antifungal activity against Cryptococcus neoformans H99 ATCC 208821 (CO-ADD:FG_002); MIC in YNB media using NBS plates, by Resazurin OD(600-570)
Measured potencies and affinities stand elsewhere.
Readings of Inhibition for the listed compounds
Use % as the unit, but write only the number.

Which Inhibition is listed for Nc1ncnc2c1ncn2[C@@H]1O[C@H](CO)C[C@@H]1O.O ?
-7.2

Which Inhibition is listed for CC(C[N+](C)(C)C)OC(N)=O.[Cl-] (stereo not given) [BETHANECHOL CHLORIDE] ?
0.14

Which Inhibition is listed for CN(C)CCCSc1ccccc1NC(=O)/C=C/c1ccccc1.Cl.O ?
-8.97

Which Inhibition is listed for NS(=O)(=O)c1cc2c(cc1Cl)NCNS2(=O)=O [HYDROCHLOROTHIAZIDE] ?
-7.59

Which Inhibition is listed for CC(C(=O)[O-])c1ccc(CC2CCCC2=O)cc1.[Na+] (stereo not given) [LOXOPROFEN SODIUM] ?
-10.19

Which Inhibition is listed for Cl.Clc1ccc2nsnc2c1NC1=NCCN1 [TIZANIDINE HYDROCHLORIDE] ?
-1.24

Which Inhibition is listed for CCc1cc(C(N)=S)ccn1 [ETHIONAMIDE] ?
-7.71

Which Inhibition is listed for CCN(CC)CCNC(=O)c1cc(Cl)c(N)cc1OC.Cl ?
-1.39

Which Inhibition is listed for CC[C@@H]1C(=O)OC[C@@H]1Cc1cncn1C.Cl [PILOCARPINE HYDROCHLORIDE] ?
-1.97

Which Inhibition is listed for CCOC(=O)[C@@H](CCc1ccccc1)N[C@@H](C)C(=O)N1CCC[C@H]1C(=O)O.O=C(O)/C=C\C(=O)O ?
-1.23
